Hello, the source for this data is PubChem BioAssay AID588780, in case you need it.

Tested on: H9c2 cardiomyocytes, 2-deoxyglucose stress, ATP luminescence, 2 h
Experiment: H9c2 cell survival under 2-deoxyglucose stress – uHTS hits, dose response (AID 588780)
The source made the active and inactive calls.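 The calls were made as follows: active = compounds whose fitted half-maximal concentration in the cell-protection dose series is at or below a set limit; inactive = the rest.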
Give your call using only these classes: Y (active), N (inactive)

For orientation, consider the following solved cases.
CCCN1Cc2cccc(C(N)=O)c2C1=O = N
CCn1c(O)c(/C=N/N=C2CCCCC2)c2cc(C3=NNC(=O)CC3)ccc21 = Y
COc1cccc(Cn2nc(C(=O)O)c3ccccc3c2=O)c1 = N
CCOC(=O)c1ccccc1NC(=O)CSc1ccc(-c2ccccn2)nn1 = Y
Cc1nc(SCC(=O)NCc2ccc(F)cc2)c2c(=O)n(C)c(=O)n(C)c2n1 = N

# input // param item: CNC(=O)/C(C#N)=C/c1c(N(Cc2ccccc2)Cc2ccccc2)nc2ccccn2c1=O ; yields the recorded call
# output Y

# input Record lookup: outcome of this test for COc1ccc(Cl)cc1NC(=O)CN(C)C(=O)CCc1nc2ccccc2c(=O)[nH]1 ?
# output N

# input Recorded test call requested for CNC(=O)c1cccc(NC(=O)c2cc(-c3ccccc3)nc3c2cnn3C(C)C)c1
# output N

# input Each compound tested received a call. Report the one for COCc1c(C(=O)Nc2ccc3nc(N4CCOCC4)sc3c2)oc2ccccc12 .
# output N

# input Recorded call for O=C(Oc1cccc2c(=O)[nH]ccc12)c1ccccc1 ?
# output Y

---

Test system: H9c2 cardiomyocytes, 2-deoxyglucose stress, ATP luminescence, 2 h
Experiment: H9c2 cell survival under 2-deoxyglucose stress – uHTS hits, dose response (AID 588780)
Calls of active or inactive are those of the source.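 Rule for the calls: active = compounds whose fitted half-maximal concentration in the cell-protection dose series is at or below a set limit; inactive = the rest.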
readout: IC50

Cc1c(OCC(=O)NCCN2CCOCC2)ccc2c1oc(=O)c1ccccc12 = 10.9 µM
COc1ccc(-c2cc(C(F)F)n3ncc(C(=O)Nc4ccc(C(=O)N5CCOCC5)cc4)c3n2)cc1 = > 79 µM (inactive)
CCOC(=O)N1CCC(n2c(SCC(=O)N3CCC(C)CC3)nc3ccccc3c2=O)CC1 = > 79 µM (inactive)
COc1ccccc1OCCSc1nc2ccccc2c(=O)[nH]1 = > 79 µM (inactive)
CC(C)(C)OC(=O)NCCCCCNC(=O)c1[nH]cnc1C(=O)Nc1cc(Br)ccc1F = > 79 µM (inactive)

# input What value of measured IC50 is listed for COc1cccc(Nc2nc3ccccc3n3cnnc23)c1 ?
# output 12.5 µM

# input Fill in: IC50 of COc1ccc(CCNC(=O)C(=O)NCC2CCCN2S(=O)(=O)c2cc(C)ccc2C)cc1 (stereo not given) is ___
# output > 79 µM (inactive)

# input Fill blank: measured IC50 of the molecule COc1cccc(/C=N/NC(=O)c2ccncc2)c1OC(=O)c1ccc(Br)cc1 is ____.
# output 24.7 µM

# input Entry COCCN1Cc2cccc(C(=O)Nc3cccc(-c4nc5ccccc5[nH]4)c3)c2C1=O : reported IC50 = ?
# output > 79 µM (inactive)

# input Recorded IC50 of CCc1ccc(NC(=O)CSc2ccc(-c3ccccn3)nn2)cc1 , please.
# output > 79 µM (inactive)

---

Test system: H9c2 cardiomyocytes, 2-deoxyglucose stress, ATP luminescence, 2 h
Test: H9c2 cell survival under 2-deoxyglucose stress – uHTS hits, dose response (AID 588780)
The source made the active and inactive calls.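 How the source made its calls: active means compounds whose fitted half-maximal concentration in the cell-protection dose series is at or below a set limit; inactive means the rest.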
The reply should name one outcome from 1.0 = active, 0.0 = inactive

Cn1c(-c2ccc(Cl)cc2)cnc1N = 0.0

# input Look up the recorded call for Cc1c(/C=N/NC(=O)c2ccc(O)cc2)c2ccccn2c1C(=O)c1ccc(F)cc1 in this test.
# output 0.0

---

IC50 by entry:
System: H9c2 cardiomyocytes, 2-deoxyglucose stress, ATP luminescence, 2 h
Assay: H9c2 cell survival under 2-deoxyglucose stress – uHTS hits, dose response (AID 588780)
The source made the active and inactive calls.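 Rule for the calls: active = compounds whose fitted half-maximal concentration in the cell-protection dose series is at or below a set limit; inactive = the rest.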

Examples with their reported IC50 follow.
CCOC(=O)C1CCN(C(c2cc3c(C)ccc(C)c3[nH]c2=O)c2nnnn2C2CCCCC2)CC1 (stereo not given) = > 79 µM (inactive)
O=C(Nc1cccc(N=Cc2cc(Br)cc(Br)c2O)c1)c1ccco1 = > 79 µM (inactive)
COc1cccc(C(c2nnnn2Cc2ccccc2)N2CCN(C3CCCC3)CC2)c1OC (stereo not given) = 35.5 µM (inactive)
O=C(N/N=C/c1ccccn1)c1cc(-c2ccc(Cl)s2)[nH]n1 = > 79 µM (inactive)

// switching to the query compound
# input Reported IC50 for COc1cc(-c2cc(NC=O)c3ncc(-c4ccc(C(C)=O)cc4)n3c2)ccc1O : what is it?
# output > 79 µM (inactive)

---

System: H9c2 cardiomyocytes, 2-deoxyglucose stress, ATP luminescence, 2 h
Test: H9c2 cell survival under 2-deoxyglucose stress – uHTS hits, dose response (AID 588780)
Activity calls are given as the source filed them.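 The calls were made as follows: active = compounds whose fitted half-maximal concentration in the cell-protection dose series is at or below a set limit; inactive = the rest.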
One label from this list, please: active, inactive

Check out these entries, answers already filled in.
Cc1cccc(NC(=O)c2nc[nH]c2C(=O)NCCCCNC(=O)c2[nH]cnc2C(=O)Nc2cccc(C)c2)c1 = inactive
COc1ccccc1NC(=O)c1cc(-c2ccc(OC)c(OC)c2)nc2ccccc12 = inactive
O=C(CN1C(=O)CCC1=O)Nc1nc(-c2ccccn2)cs1 = inactive
COc1cc(/C=C(\C#N)C(=O)Nc2ccccc2F)ccc1OCCN1CCOCC1 = active
COc1cc(/C=C/C(=O)Nc2ccc3nc4n(c(=O)c3c2)CCCC4)cc(OC)c1OC = active
CCCCn1nc(C(=O)Oc2ccc3c(C)cc(=O)oc3c2)c2ccccc2c1=O = inactive
CC(C)c1cc(N2CCN(C(=O)c3ccco3)CC2)n2c(nc3ccccc32)c1C#N = active
CCOc1ccc(NC(=O)CN(C)C(=O)Cc2n[nH]c(=O)c3ccccc23)cc1OCC = inactive
COc1cccc(NC(=O)CN(C)C(=O)Cc2n[nH]c(=O)c3ccccc23)c1 = inactive

# next molecule below
# input Query: recorded result category for COc1ccc(Cl)cc1NC(=O)CN(C)C(=O)Cn1[nH]c(=O)c2ccccc2c1=O in this test
# output inactive

---

Test system: H9c2 cardiomyocytes, 2-deoxyglucose stress, ATP luminescence, 2 h
Test: H9c2 cell survival under 2-deoxyglucose stress – uHTS hits, dose response (AID 588780)
Calls of active or inactive are those of the source.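 Rule for the calls: active = compounds whose fitted half-maximal concentration in the cell-protection dose series is at or below a set limit; inactive = the rest.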
The reply should name one outcome from active, inactive

CCOC(=O)c1c(NC(=O)COC(=O)c2ccc(O)cc2)sc(C(=O)N(C)C)c1C = inactive
COc1cc(-c2cc(NC=O)c3ncc(-c4ccc(C(C)=O)cc4)n3c2)cc(OC)c1OC = inactive
CCCc1cc(=O)oc2c(CNc3ccc(OCC)cc3)c(O)ccc12 = active
COc1ccc(N/C=C(\C#N)c2nc3ccccc3n2C)c(OC)c1 = inactive

# input Which outcome was entered for the molecule COc1ccccc1-c1cc(NC(C)=O)c2ncc(-c3cccc(C(C)=O)c3)n2c1 in this test?
# output active

---

Test system: H9c2 cardiomyocytes, 2-deoxyglucose stress, ATP luminescence, 2 h
Test: H9c2 cell survival under 2-deoxyglucose stress – uHTS hits, dose response (AID 588780)
Active and inactive are the calls of the source.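 The calls were made as follows: active = compounds whose fitted half-maximal concentration in the cell-protection dose series is at or below a set limit; inactive = the rest.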
Respond only with the outcome that fits, drawn from active, inactive

Worked set:
CC(=O)c1c(C)n(-c2cccc(Cl)c2)c2ccc(O)cc12 = active
COc1cc(C(=O)N/N=C/c2ccc(OC(=O)c3ccccc3)c(OC)c2)ccc1O = inactive

# input Tell me the assay call for CCOC(=O)c1c(C)nc2sc3c(=O)n(-c4ccc(C(C)=O)cc4)cnc3c2c1-c1ccc(OC)cc1 please.
# output inactive

# input What did this assay record as the result for COc1ccc(/C=N/NC(=O)c2ccn[nH]2)cc1COc1ccc(Cl)cc1 ?
# output inactive

# input Tell me the assay call for O=C(Nc1nc2ccccc2n1Cc1ccccc1)c1ccco1 please.
# output active

---

Tested on: H9c2 cardiomyocytes, 2-deoxyglucose stress, ATP luminescence, 2 h
Assay: H9c2 cell survival under 2-deoxyglucose stress – uHTS hits, dose response (AID 588780)
Activity calls are given as the source filed them.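 How the source made its calls: active means compounds whose fitted half-maximal concentration in the cell-protection dose series is at or below a set limit; inactive means the rest.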
I would appreciate it if you answered using one of these outcomes: Y (active), N (inactive)

The examples below pair each entry with its known result.
CCCCc1nc2sc3c(c2c(=O)[nH]1)CCC3 = N
C/C(=N/NC(=O)c1cccs1)c1cccc(NC(=O)C2CC2)c1 = N
CCOC(=O)Cc1csc(NC(=O)NC2(C(F)(F)F)Oc3ccc(Cl)cc3O2)n1 (centres undefined) = N
C[C@H](CO)N1C[C@H](C)[C@@H](CN(C)S(=O)(=O)c2ccccc2)Oc2ccc(NC(=O)Nc3ccccc3)cc2C1=O = Y
CC(C)[C@H](NC(=O)c1ccccc1Cl)C(=O)Nc1nc(-c2ccccn2)cs1 = N
O=C(C[C@H]1C/C=C\CC[C@H](Cc2ccc(F)cc2)C(=O)O[C@H](c2ccccc2)CNC1=O)N[C@H](CO)Cc1ccccc1 = N
CCC(=O)N1CCN(c2ccc(NC(=O)c3cc4ccccc4o3)cc2Cl)CC1 = N
CC(=O)Nc1cccc(-c2cc(NC(C)=O)c3ncc(-c4cccc(C(C)=O)c4)n3c2)c1 = N

Now turn to the next compound.
# input Assay outcome for COc1ccc2[nH]c(=O)c(CN(Cc3ccco3)C(c3nnnn3Cc3ccccc3)C(C)C)cc2c1 (centres undefined) : what was it?
# output N
